Taken from ChEMBL document CHEMBL1150378.

Each entry below carries its recorded IC50.
System: Leishmania donovani
protocol description: Antileishmanial activity against Leishmania donovani MHOM-ET-67/L82 axenic amastigotes
Assay type: functional, organism-based
// return numeric value only (unit: nM, not printed)

Sample records with IC50:
{"smiles repr": "CCN(CC)c1ccc2nc3ccc(N4CCCC4)cc3[o+]c2c1.[Cl-]", "IC50 (nM)": 654}
{"smiles repr": "CCCCCCN(CCCCCC)c1ccc2nc3ccc(N4CCCCC4)cc3[o+]c2c1.[Cl-]", "IC50 (nM)": 14}
{"smiles repr": "[Cl-].c1cc2nc3ccc(N4CCCC4)cc3[o+]c2cc1N1CCCC1", "IC50 (nM)": 37}

Q: Which measured IC50 value corresponds to "[Cl-].c1cc2nc3ccc(N4CCCCC4)cc3[o+]c2cc1N1CCCCC1" ?
A: 1140

Q: Which measured IC50 value corresponds to "CCCCCN(CCCCC)c1ccc2nc3ccc(N4CCCCC4)cc3[o+]c2c1.[Cl-]" ?
A: 2

Q: Which measured IC50 value corresponds to "CCN(CC)c1ccc2nc3ccc(N4CCSCC4)cc3[o+]c2c1.[Cl-]" ?
A: 1000

Q: Which measured IC50 value corresponds to "CCCN(CCC)c1ccc2nc3ccc(N(CCC)CCC)cc3[o+]c2c1.[Cl-]" ?
A: 2

Q: Which measured IC50 value corresponds to "[Cl-].c1cc2nc3ccc(N4CCOCC4)cc3[o+]c2cc1N1CCOCC1" ?
A: 5180

Q: Which measured IC50 value corresponds to "CCCCCCCCCCCCCCCCOP(=O)([O-])OCC[N+](C)(C)C" ?
A: 280

Q: Which measured IC50 value corresponds to "CCCN(CCC)c1ccc2nc3ccc(N4CCOCC4)cc3[o+]c2c1.[Cl-]" ?
A: 754
